- Measurement Target: Cholinesterase (Homo sapiens)
- Sequence (P06276 whole entry): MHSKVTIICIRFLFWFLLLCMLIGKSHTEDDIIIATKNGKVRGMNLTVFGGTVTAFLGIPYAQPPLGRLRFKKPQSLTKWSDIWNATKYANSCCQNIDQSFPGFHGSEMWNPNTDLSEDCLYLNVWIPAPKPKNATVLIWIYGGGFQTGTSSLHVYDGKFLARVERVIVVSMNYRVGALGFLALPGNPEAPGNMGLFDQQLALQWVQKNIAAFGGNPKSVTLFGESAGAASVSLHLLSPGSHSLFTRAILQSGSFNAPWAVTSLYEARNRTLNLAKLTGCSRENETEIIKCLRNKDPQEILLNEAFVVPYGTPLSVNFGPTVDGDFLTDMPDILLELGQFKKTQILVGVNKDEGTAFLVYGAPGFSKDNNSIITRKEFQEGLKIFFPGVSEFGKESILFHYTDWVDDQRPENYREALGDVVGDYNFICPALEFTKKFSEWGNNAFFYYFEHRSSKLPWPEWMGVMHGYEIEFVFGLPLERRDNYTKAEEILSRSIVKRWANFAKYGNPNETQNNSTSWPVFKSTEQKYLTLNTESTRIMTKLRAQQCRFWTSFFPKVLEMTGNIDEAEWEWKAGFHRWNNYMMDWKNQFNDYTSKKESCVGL
Exercise: for every item that follows, state its recorded IC50.

Known results for compounds:
>  <Chemical String>
COc1ccc(-c2cc3c(c(=O)o2)C[C@@]2(O)[C@@]4(C)CCC(=O)OC(C)(C)[C@@]4(O)CC[C@@]2(C)O3)cc1

>  <Measurement Target>
Cholinesterase (Homo sapiens)

>  <Assay Value>
> 500 µM

$$$$
>  <Chemical String>
COc1ccc(-c2cc3c(c(=O)o2)C[C@@]2(O)[C@@]4(C)C(=O)[C@@]5(OC)C(=O)O[C@]4(CC[C@@]2(C)O3)C5(C)C)cc1

>  <Measurement Target>
Cholinesterase (Homo sapiens)

>  <Assay Value>
> 200 µM

$$$$
>  <Chemical String>
COC1=CC(=O)[C@]2(C)[C@]3(O)Cc4c(cc(-c5cc(OC)c(OC)c(OC)c5)oc4=O)O[C@]3(C)CC[C@]2(O)C1(C)C

>  <Measurement Target>
Cholinesterase (Homo sapiens)

>  <Assay Value>
> 200 µM

$$$$
>  <Chemical String>
COc1ccc(-c2cc3c(c(=O)o2)C[C@@]2(O)[C@@]4(C)C=CC(=O)C(C)(C)[C@@]4(O)CC[C@@]2(C)O3)cc1

>  <Measurement Target>
Cholinesterase (Homo sapiens)

>  <Assay Value>
> 200 µM

$$$$

Proceeding to the next compound to report its IC50.
QUERY: Please report the recorded IC50 for `COc1ccc(-c2cc3c(c(=O)o2)C[C@@]2(O)[C@@]4(C)CCC(=O)C(C)(C)[C@@]4(O)CC[C@@]2(C)O3)cc1` .
RESULT: > 200 µM

----------
- Measurement Target: Acetylcholinesterase (Homo sapiens, UniProt P22303)
- Sequence (P22303 whole entry): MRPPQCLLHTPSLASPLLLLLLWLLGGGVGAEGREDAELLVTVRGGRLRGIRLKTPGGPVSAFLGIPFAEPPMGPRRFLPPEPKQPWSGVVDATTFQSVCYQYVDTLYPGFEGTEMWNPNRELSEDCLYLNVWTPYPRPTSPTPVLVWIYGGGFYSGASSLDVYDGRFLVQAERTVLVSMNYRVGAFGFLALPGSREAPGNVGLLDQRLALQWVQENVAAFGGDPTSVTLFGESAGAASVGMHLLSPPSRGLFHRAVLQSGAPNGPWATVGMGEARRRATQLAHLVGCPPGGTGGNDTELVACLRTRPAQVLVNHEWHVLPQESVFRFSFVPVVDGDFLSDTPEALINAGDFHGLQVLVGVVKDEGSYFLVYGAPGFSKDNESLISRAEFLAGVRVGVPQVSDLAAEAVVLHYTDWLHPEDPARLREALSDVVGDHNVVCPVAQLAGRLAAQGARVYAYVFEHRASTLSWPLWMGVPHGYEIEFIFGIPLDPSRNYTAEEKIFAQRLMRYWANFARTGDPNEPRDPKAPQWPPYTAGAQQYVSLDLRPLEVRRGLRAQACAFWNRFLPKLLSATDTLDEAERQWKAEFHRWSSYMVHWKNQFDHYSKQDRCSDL
Consider the following compounds; for each one, report its pIC50.
Answers are plain numbers, as −log10 of the molar value.

Examples with their reported pIC50 follow.
>  <Chemical String>
COc1ccc(-c2cc3c(c(=O)o2)C[C@@]2(O)[C@@]4(C)CCC(=O)C(C)(C)[C@@]4(O)CC[C@@]2(C)O3)cc1

>  <pIC50>
7.22

$$$$
>  <Chemical String>
COc1ccc(-c2cc3c(c(=O)o2)C[C@@]2(O)[C@@]4(C)C=CC(=O)C(C)(C)[C@@]4(O)CC[C@@]2(C)O3)cc1

>  <pIC50>
7.05

$$$$
>  <Chemical String>
COc1ccc(-c2cc3c(c(=O)o2)C[C@@]2(O)[C@@]4(C)C(=O)[C@@]5(OC)C(=O)O[C@]4(CC[C@@]2(C)O3)C5(C)C)cc1

>  <pIC50>
6.64

$$$$

QUERY: Would you kindly share the measured pIC50 for `COC1=CC(=O)[C@]2(C)[C@]3(O)Cc4c(cc(-c5cc(OC)c(OC)c(OC)c5)oc4=O)O[C@]3(C)CC[C@]2(O)C1(C)C` ?
RESULT: 6.38
